EXPERIMENT_SUMMARY: Stability in human plasma assessed as half life at 1.2 mM incubated for 30 mins by LC-MS analysis
Format: ADME, cell-free
Peptide text beside a SMILES is read from it.
METRIC: half-life at 1200 µM (min)
API: value field is a number in min; no unit string.

Name the recorded half-life at 1200 µM for CC(C)[C@H](NC(=O)[C@H](Cc1ccccc1)NC(=O)[C@H](C)NC(=O)[C@H](C)NC(=O)[C@H](CCC(N)=O)NC(=O)[C@H](CCCNC(=N)N)NC(=O)[C@@H](N)Cc1c[nH]c2ccccc12)C(=O)N[C@@H](CC(=O)O)C(=O)N[C@@H](CO)C(=O)N[C@@H](Cc1ccc(O)cc1)C(=O)O (H-WRQAAFVDSY-OH) .
2.27

###

EXPERIMENT_SUMMARY: Stability in human plasma assessed as intact parent compound level measured after 24 hrs by LC-MS analysis
Assay type: ADME, cell-free
CONDITION_NOTES: read-out: Stability
Bridge positions count the residues as written; N and C are the ends. Square brackets hold non-standard residues; d marks the D form. Triazole bridges read from a SMILES are 1,4-linked. Peptide text beside a SMILES is read from it. Lys(N3) = [N-]=[N+]=NCCCC[C@H](N)C(=O)O; Pra = C#CC[C@H](N)C(=O)O; Ahx = NCCCCCC(=O)O
METRIC: remaining at 24 h (%)
API: value field is a number in %; no unit string.

Name the recorded remaining at 24 h for CC(C)[C@@H]1NC(=O)[C@H](Cc2ccccc2)NC(=O)[C@@H](NC(=O)[C@@H]2CCCCn3cc(nn3)C[C@H](NC(=O)CCCCCNC(=O)[C@@H](N)CCCCN)C(=O)N[C@@H](Cc3c[nH]c4ccccc34)C(=O)N[C@@H](CCCNC(=N)N)C(=O)N[C@@H](CCC(N)=O)C(=O)N2)Cc2cn(nn2)CCCC[C@@H](C(=O)N[C@@H](Cc2ccc(O)cc2)C(N)=O)NC(=O)[C@H](CC(=O)O)NC1=O (H-K[Ahx][Pra]WRQ[Lys(N3)][Pra]FVD[Lys(N3)]Y-NH2; triazole 3-7, 8-12) .
20
